Tested on: Radical scavenging activity
ASSAY_PROCEDURE: Antioxidant activity assessed as DPPH radical scavenging activity
Type: functional
pIC50: −log10 of the molar value.
Form field: pIC50 (one value per entry).
QUANTITY_NAME: pIC50

compound=C[C@H]1Cc2c(O)c3c(c(O)c2O1)[C@@]1(C)CC[C@H]2C[C@@]2(C)[C@@H]1CC3=O quantity_name=pIC50 measured=3.95
compound=C[C@@H]1Oc2c(O)c3c(c(O)c2[C@H]1O)C(=O)C(O)=C1[C@]3(C)CC[C@H]2C[C@@]12C quantity_name=pIC50 measured=4.08
compound=C[C@]12CC[C@H]3C[C@@]3(C)C1=C(O)C(=O)c1c2c(O)c2oc(CO)cc2c1O quantity_name=pIC50 measured=4.00
compound="Cc1c(C)c2c(c(C)c1O)CCC(C)(C(=O)O)O2 (centres undefined)" quantity_name=pIC50 measured=4.62
compound=C[C@H]1Cc2c(O)c3c(c(O)c2O1)[C@@]1(C)CCC(=O)C(C)(C)C1=C(O)C3=O quantity_name=pIC50 measured=4.20
compound=Cc1cc2c(O)c3c(c(O)c2o1)[C@@]1(C)CCCC(C)(C)C1=C(O)C3=O quantity_name=pIC50 measured=4.12
compound=C[C@H]1Cc2c(O)c3c(c(O)c2O1)[C@@]1(C)CCCC(C)(C)C1=C(O)C3=O quantity_name=pIC50 measured=4.26
compound=CC1(C)CCC[C@@]2(C)C1=C(O)C(=O)c1c(O)c3c(c(O)c12)O[C@@H](CO)C3 quantity_name=pIC50 measured=4.07
compound=Cc1cc2c(O)c3c(c(O)c2o1)[C@@]1(C)CC[C@H]2C[C@@]2(C)[C@@H]1CC3=O quantity_name=pIC50 measured=3.89
compound=Cc1cc2c(O)c3c(c(O)c2o1)[C@@]1(C)CCC(=O)C(C)(C)C1=C(O)C3=O quantity_name=pIC50 measured=4.19
compound=Cc1cc2c(O)c3c(c(O)c2o1)[C@@]1(C)CC[C@H]2C[C@@]2(C)C1=C(O)C3=O quantity_name=pIC50 measured=4.26
compound=C[C@H]1Cc2c(O)c3c(c(O)c2O1)[C@@]1(C)CC[C@H]2C[C@@]2(C)C1=C(O)C3=O quantity_name=pIC50 measured=4.01
compound=C[C@@H]1Oc2c(O)c3c(c(O)c2[C@H]1O)C(=O)C(O)=C1C(C)(C)CCC[C@@]13C quantity_name=pIC50 measured=4.15
compound=CC1(C)CCC[C@@]2(C)C1=C(O)C(=O)c1c2c(O)c2oc(CO)cc2c1O quantity_name=pIC50 measured=3.92
